EXPERIMENTAL PROTOCOL: Antiproliferative activity against human HL60 cells after 72 hrs by MTT assay
Type: functional, cell-based, HL-60
CONDITION SET: Homo sapiens, HL-60, 72 h; read-out: IC50
Kindly state log10 IC50 for each of the entries shown.
Recall that a logarithmic scale is used here: each number is log10 of IC50 in µM.

O=P(O)(O)C(Nc1ccc(Sc2ccc(NC(P(=O)(O)O)P(=O)(O)O)cc2)cc1)P(=O)(O)O = 3.06
O=P(O)(O)C(NC1CCCCCC1)P(=O)(O)O = 2.03
O=P(O)(O)C(N[C@H]1CC[C@H](NC(P(=O)(O)O)P(=O)(O)O)CC1)P(=O)(O)O = 2.96
O=P(O)(O)C(Nc1ccc(S(=O)(=O)c2ccc(NC(P(=O)(O)O)P(=O)(O)O)cc2)cc1)P(=O)(O)O = 2.78
O=P(O)(O)C(Nc1ccc(NC(P(=O)(O)O)P(=O)(O)O)cc1)P(=O)(O)O = 1.96
O=P(O)(O)C(NC1CCCC(NC(P(=O)(O)O)P(=O)(O)O)C1)P(=O)(O)O (stereo not given) = 2.78
O=P(O)(O)C(O)(Cn1ccnc1)P(=O)(O)O = 2.78
O=P(O)(O)C(Nc1ccc(Cc2ccc(NC(P(=O)(O)O)P(=O)(O)O)cc2)cc1)P(=O)(O)O = 2.93
O=P(O)(O)C(NCc1cccc(CNC(P(=O)(O)O)P(=O)(O)O)c1)P(=O)(O)O = 2.81

Continue with the compound presented below.
For O=P(O)(O)C(NCCCCCCNC(P(=O)(O)O)P(=O)(O)O)P(=O)(O)O the compound record lists log10 IC50 as 2.83
